Provenance of the data: PubChem BioAssay (NCI)

# System: CAKI-1 renal
# experimentalProtocol: NCI tumour cell line growth inhibition, 48 h
Reported TGI values are given for each entry in this list.
Only the number, expressed in µM, is required.

Illustrative cases are given below, each with its answer.
smilesCode	TGI, µM
Cc1ccc(/C=C/C(=O)c2cc(CN(C)C)c(O)c(CN(C)C)c2)cc1	50.3
O=[N+]([O-])c1ccc(Sc2c3ccccc3nc3ccccc23)nc1	11.8
CC(=O)[O][Hg][c]1ccccc1	2.89

Okay, next one:
I looked up Cc1ccc(/C=C/C(=N/NC(=O)N/N=C(/C=C/c2ccc(C)cc2)C(C)(C)CN2CCCCC2)C(C)(C)CN2CCCCC2)cc1 and its TGI for CAKI-1 renal was 5.56

* * *

Reported TGI values are given for each entry in this list.
# Tested on: KM12 colon
# experimentalProtocol: NCI tumour cell line growth inhibition, 48 h

Illustrative cases are given below, each with its answer.
compound	TGI
COCCOCC(=O)N(CCn1ccc(NC(c2ccccc2)(c2ccccc2)c2ccccc2)nc1=O)CCn1cnc2nc(N)[nH]c(=O)c21	> 100 µM
CCC1CCc2nc3sc(C(=O)Nc4ccccc4C)c(N)c3cc2C1 (stereo not given)	> 100 µM
CC#CCCN(CC#N)Cc1ccccc1	> 100 µM

What the record says about COc1ccc(C(=O)c2cc3c(N)c(C(=O)Nc4cccc(Cl)c4C)sc3nc2C)cc1 : TGI is > 25 µM

What the record says about CN(C)c1n/c(=N/c2ncn[nH]2)ss1 : TGI is > 100 µM

What the record says about CNC1C(O)C(OC2C(N)CC(N)C(OC3OC(C(C)O)C(O)C(O)C3N)C2O)OCC1(C)O (stereo not given) : TGI is > 100 µM

What the record says about C=CC[C@@H]1C(=O)[C@@]2(O[Si](C(C)C)(C(C)C)C(C)C)CC[C@@H]1C[C@H]2NC(=O)OCC(Cl)(Cl)Cl : TGI is > 100 µM

What the record says about NC(=O)/C=C/NC(=O)/C=N\O : TGI is > 100 µM

What the record says about COC1=Nc2ccccc2S(=O)(=O)C=C1 : TGI is 28.4 µM

What the record says about Cn1c2cc(O)cc(O)c2c(=O)c2c([N+](=O)[O-])cccc21 : TGI is > 100 µM

What the record says about COC12CC(=O)C(C(C)=O)=C(O)C1(C)c1c(OC(C)=O)c(C)c(O)c(C(C)=O)c1O2 (stereo not given) : TGI is > 100 µM

* * *

Reported TGI values are given for each entry in this list.
# Tested on: HCC-2998 colon
# experimentalProtocol: NCI tumour cell line growth inhibition, 48 h

Illustrative cases are given below, each with its answer.
compound	TGI
Nc1nc(Cl)c2nnn(CC3CCC(CO)C3)c2n1 (stereo not given)	> 100 µM
C#CCOc1cccc(Nc2ncnc3ccc(NC(=O)CCl)cc23)c1	22.7 µM
C=CC[C@@H]1C(=O)[C@@]2(O[Si](C(C)C)(C(C)C)C(C)C)CC[C@@H]1C[C@H]2NC(=O)OCC(Cl)(Cl)Cl	> 100 µM
Cn1c2cc(O)cc(O)c2c(=O)c2c([N+](=O)[O-])cccc21	> 100 µM

What the record says about C=C1CN(Cc2ccccc2)[C@@H]2CCCCC[C@H](C#N)[C@H]12 : TGI is > 100 µM

* * *

Reported TGI values are given for each entry in this list.
# Test system: 786-0 renal
# experimentalProtocol: NCI tumour cell line growth inhibition, 48 h

compound	TGI
C=C1C(=O)O[C@H]2[C@H]1CC(=O)/C(C)=C/CC[C@@]1(C)O[C@@H]21	1.53 µM

What the record says about CCOC(=O)/C=C(/C(=O)OCC)n1ccc(=O)n(/C(=C/C(=O)OCC)C(=O)OCC)c1=O : TGI is 5.86 µM

What the record says about Cc1cc(C)nc(SC2=C(Nc3cccc(Cl)c3C)C(=O)N(Cc3ccccc3)C2=O)n1 : TGI is > 160 µM

* * *

# Test system: SK-MEL-28 melanoma
# experimentalProtocol: NCI tumour cell line growth inhibition, 48 h
Reported TGI values are given for each entry in this list.

Illustrative cases are given below, each with its answer.
smilesCode	TGI
CCc1nc(N)nc(N)c1-c1ccc(NCCc2ccccc2)c([N+](=O)[O-])c1	28.2 µM
COc1cc2nc3cc([N+](=O)[O-])ccc3c(NCCCNCC(C)(C)O)c2cc1OC	2.5 µM
O=C(c1ccc(Br)cc1)n1c2ccc(Br)cc2c2nc3ccccc3nc21	> 100 µM

What the record says about O=C(O)CCCOc1cc(-c2ccccc2F)nc2cc3c(cc12)OCO3 : TGI is > 100 µM

What the record says about CSc1ccc(/C=C/c2ccnc3ccccc23)cc1 : TGI is 32.6 µM

* * *

# Test system: SK-MEL-5 melanoma
# experimentalProtocol: NCI tumour cell line growth inhibition, 48 h
Reported GI50 values are given for each entry in this list.

compound	GI50
CS(=O)(=O)CCNCc1ccc(-c2ccc3ncnc(Nc4ccc(OCc5ccccc5)c(Cl)c4)c3c2)o1	2.98 µM
Nc1nnc(Cn2c(-c3ccccc3)nc3ccc(Br)cc3c2=O)s1	26.8 µM
COc1ccc(C(=O)c2cc3c(N)c(C(=O)Nc4cccc(Cl)c4C)sc3nc2C)cc1	0.109 µM
O=C(O)C1(Cc2cccc(Nc3nccs3)n2)CCC(Oc2cccc(Cl)c2F)CC1 (stereo not given)	14.8 µM

Okay, next one:
What the record says about C/C(Cc1ccc(Cl)cc1)=C(/c1ccc(Cl)cc1)c1ccc(OCCN(C)C)cc1 : GI50 is 4.4 µM

* * *

Reported log10 of TGI values are given for each entry in this list.
# System: UACC-62 melanoma
# experimentalProtocol: NCI tumour cell line growth inhibition, 48 h
Kindly note that the scale is log10 and the underlying TGI is in µM.

Illustrative cases are given below, each with its answer.
molecule	log10 of TGI
COc1cc(/C=C/c2cc(/C=C/c3ccc(O)c(OC)c3)oc(=O)c2)ccc1O	1.27
C[C@H]1C(Oc2ccc(O)cc2)OC2OC3(C)CCC4[C@H](C)CCC1C24OO3 (stereo not given in full)	1.41

I looked up C#CCOc1cccc(Nc2ncnc3ccc(NC(=O)CCl)cc23)c1 and its log10 of TGI for UACC-62 melanoma was 1.31

I looked up O=C1/C(=C/c2ccccc2)CN(C(=O)OCc2ccccc2)C/C1=C\c1ccccc1 and its log10 of TGI for UACC-62 melanoma was 1.31

I looked up S=c1sc2nc(Cl)nc(Cl)c2s1 and its log10 of TGI for UACC-62 melanoma was 1.43

I looked up COc1cnc2c(c1)C(=O)c1c-2n(CCCN2CCCC2)c(=O)c2cc(F)ccc12 and its log10 of TGI for UACC-62 melanoma was 0.34

I looked up COc1cc([C@@H]2c3cc4c(cc3[C@@H](NC(=O)c3cccc(F)c3)C3COC(=O)[C@@H]32)OCO4)cc(OC)c1O (stereo not given in full) and its log10 of TGI for UACC-62 melanoma was 0.57

I looked up CC1=C[S+](c2ccccc2)c2cccc3cc4ccccc4c1c23 (stereo not given) and its log10 of TGI for UACC-62 melanoma was 0.21

* * *

# Test system: HOP-62 NSCLC
# experimentalProtocol: NCI tumour cell line growth inhibition, 48 h
observedProperty: GI50

compound	assaySystem	observedProperty	endpointValue
O=C(OCc1ccc2c(Cl)cc(Cl)c(O)c2n1)c1cc2ccccc2[nH]1	HOP-62 NSCLC	GI50	1.63 µM
CCOC(=O)c1cc2c(n1Cc1ccccc1)-c1oncc1CC2	HOP-62 NSCLC	GI50	5.3 µM
CCCCC#CC#Cc1cccc(=O)o1	HOP-62 NSCLC	GI50	18.1 µM
O=C(CCCCCCSc1nc(-c2ccc(Cl)cc2)cc(-c2ccc(Cl)cc2)n1)NO	HOP-62 NSCLC	GI50	1.52 µM
CNCCCNc1nc2ccccc2c2c(=O)c3cc(Cl)ccc3sc12	HOP-62 NSCLC	GI50	1.13 µM

What the record says about Nc1c(C(=O)Nc2ccccc2F)sc2nc3c(cc12)C(=O)CCC3 : GI50 is 4.12 µM

What the record says about Cc1ccc(S(=O)(=O)Cc2nc(-c3ccc(C(=O)NCc4cccnc4)cc3)oc2C)cc1 : GI50 is 15.4 µM

What the record says about CCC1CCc2nc3sc(C(=O)Nc4ccccc4C)c(N)c3cc2C1 (stereo not drawn) : GI50 is 0.674 µM

What the record says about COc1ccc2c(c1)[n+](=O)c(C(=O)/C=C/c1cc(OC)c(OC)c(OC)c1)c(C)n2[O-] : GI50 is 18.7 µM

What the record says about CCC[CH2][Sn]([CH2]CCC)([O]C(=O)C1CCC(=O)N1)[O]C(=O)C1CCC(=O)N1 (stereo not drawn) : GI50 is 0.619 µM

* * *

# System: NCI/ADR-RES ovarian
# experimentalProtocol: NCI tumour cell line growth inhibition, 48 h
observedProperty: GI50

compound	endpointValue
Cc1nc(N)sc1C(=O)Nc1cc(C(=O)NCCCN(C)C)n(C)c1	> 100 µM
C[C@H]1C(Oc2ccc(O)cc2)OC2OC3(C)CCC4[C@H](C)CCC1C24OO3 (stereo partly drawn)	8.04 µM

What the record says about CCCCn1sc(=O)n(Cc2ccc(CNC(=O)OCc3ccc4c(Br)cc(Br)c(O)c4n3)cc2)c1=O : GI50 is 0.325 µM

What the record says about Cc1ccc(S(=O)(=O)Cc2nc(-c3ccc(C(=O)NCc4cccnc4)cc3)oc2C)cc1 : GI50 is 0.623 µM

What the record says about N#Cc1ccc(C(c2ccc(C#N)cc2)n2cncn2)cc1 : GI50 is > 5000 µM

What the record says about CC(=O)OCC1O[C@@H]([S-])C(OC(C)=O)[C@H](OC(C)=O)[C@@H]1OC(C)=O.[Au+].c1ccc(CN2[CH-]N(Cc3ccccc3)C(c3ccccc3)=C2c2ccccc2)cc1 : GI50 is 5.21 µM

What the record says about O=C1C(Cl)=C(Nc2cccc(O)c2)C(=O)N1c1ccccc1Cl : GI50 is 56.3 µM

What the record says about C#Cc1cccc(Nc2nc3ccc([N+](=O)[O-])cc3nc2Nc2cccc(C#C)c2)c1 : GI50 is 0.284 µM
